- Test system: U251 CNS
- assay summary: NCI-60 one-dose screen, 48 h
- condition parameters: 10 µM unless noted
About 83,000 compounds went through this panel and 20% of them were active in at least one assay; those are over-represented in the sample as a whole. Active and inactive are the calls of the source. The calls were made as follows: active = growth percent below 10; inactive = the rest.
Choose one outcome from this list and give only that: T for active, F for inactive

Worked cases, answers included:
| compound | answer label |
| --- | --- |
| C#CCOc1cccc(Nc2ncnc3c2ncn3C2CCN(C(=O)CCl)C2)c1 (stereo not given) | T |
| COc1ccc(Nc2ncc(I)c(NCCCNC(=O)C3CCC3)n2)cc1 | T |
| CN(C)CCCn1c2c(c3cnccc3c1=O)C(=O)c1ccccc1-2 | T |
| CCOC(=O)c1cn2ncnc(Oc3ccc(NC(=O)NC4CC4)c(Cl)c3)c2c1C | F |
| Cc1c(O)cc(-c2cnc(N/N=C/c3ccccc3)s2)c(O)c1C | F |

Hey, what did the test say about COCC(=O)Oc1cc(-c2ccc(C)cc2C)c(OC(=O)COC)c(-c2ccc(C)cc2C)c1 ? F

Hey, what did the test say about Cc1ccc(-c2csc(NC(=O)CSc3nc(N)cc(N)n3)n2)cc1 ? F

Hey, what did the test say about NC(=O)c1ccccc1OCC(=O)Nc1ccc(Cl)c(Cl)c1 ? F

Hey, what did the test say about Clc1ccc(-c2nc(C(Cl)Cl)nc3cc(-c4ccccc4)nn23)cc1 ? T

Hey, what did the test say about Cc1ccc(NC(=O)c2cc3ccccc3cc2O)c(C)c1 ? F

Hey, what did the test say about ClCCn1cnc2c(SCc3ccccc3)ncnc21 ? F

Hey, what did the test say about C=C(C)[C@@H]1CC[C@]2(C)[C@H](C=CC3=C4C[C@@](C)(CO)CC[C@]4(C)CC[C@]32C)[C@@]1(C)CCCN ? T

Hey, what did the test say about CCSc1ccnc(N)n1 ? F

Hey, what did the test say about COc1ccc(-c2cc(-c3cc(OC)ccc3OC)nc(SCC(C)=O)c2C#N)cc1 ? F

Hey, what did the test say about Cc1c2cnccc2c(C)c2c1c1cc(CO)ccc1n2C ? T

Hey, what did the test say about C=C(C)[C@@H]1CC[C@]2(C(=O)N3CCNCC3)CC[C@]3(C)[C@H](CC[C@@H]4[C@@](C)(CCC(=O)N5CCNCC5)[C@H](C(=C)C)CC[C@]43C)[C@@H]12 ? T

Hey, what did the test say about CN1c2ccccc2S(=O)(=O)n2c(SCC(=O)Nc3nc4ccc(F)cc4s3)nnc21 ? F

Hey, what did the test say about CC1SC(c2ccccc2O)N(NC(=O)CCC(=O)c2nc3ncccc3[nH]2)C1=O (stereo not given) ? F

Hey, what did the test say about COCCOC(C)C(/C=N/NC(N)=S)=N/NC(N)=S (stereo not given) ? F

Hey, what did the test say about Cc1[nH]c(C(=O)Nc2ccccc2OC2CCN(CCN3CCOCC3)CC2)c(Cl)c1Cl ? F

---

- Tested on: NCI-H322M lung
- assay summary: NCI-60 one-dose screen, 48 h (100 = growth as untreated, 0 = no growth, -100 = all killed)
- condition parameters: 10 µM unless noted
About 83,000 compounds went through this panel and 20% of them were active in at least one assay; those are over-represented in the sample as a whole.
The reader will find reported growth values listed item by item below.
// return numeric value only (unit: %, not printed)

Take a look at these entries with their results.
| compound | assayed target | recorded endpoint | unit abbrev | reported result |
| --- | --- | --- | --- | --- |
| COc1ccc2c(c1)C(C)Cc1c(ncnc1-n1cnc3cc(C)ccc31)N2C (stereo not given) | NCI-H322M lung | growth | % | 48.6 |
| C=C1C(=O)O[C@H]2[C@H]1CC/C(COC(=O)NCc1ccc(Cn3c(=O)sn(-c4ccccc4)c3=O)cc1)=C\CC[C@@]1(C)O[C@@H]21 | NCI-H322M lung | growth | % | 92.7 |
| Clc1ccc(Nc2ncc(Cc3cccc(Cl)c3Cl)s2)cc1 | NCI-H322M lung | growth | % | 110 |
| COc1cc(-c2nccc3[nH]c(-c4cccc5[nH]ccc45)nc23)cc(OC)c1OC | NCI-H322M lung | growth | % | 64 |

Report growth for COc1ccc(Oc2ccc(/C=C/C(=O)c3ccc(OC)c(OC)c3)cc2)cc1 86.7

Report growth for CSc1nc2ccc(C)cc2cc1/C=C1/C=C(c2ccccc2)NC1=O 65.8

Report growth for CCOC(=O)NCCCC(=O)NCCc1ccccc1 106

Report growth for CCCCCCCCn1ccc2cc(NC(=O)CN3CCN(c4cc(C)nc(Cl)n4)CC3)ccc21 89.5

Report growth for O=C(/C=C/c1ccco1)Nc1ncc(Cc2cc(Cl)ccc2Cl)s1 43.7

Report growth for COc1ccc(C=Nc2c(C(=O)Nc3cccc(Cl)c3C)sc3nc(C)c(C(=O)/C=C/c4ccc(OC)cc4)cc23)cc1 43.1
